compounds and their reported fold change of Cadaverine concentration
Test system: Escherichia coli IAI1
assay-info: fold change of Cadaverine concentration vs plate DMSO controls (fold change (ratio)); higher = more amine produced, active = hit call of the paper (significant change in both replicates, either direction)
details: incubation time: 27 h, anaerobic, 37 °C
Counter-ions that a name gives are not always drawn.
reported-property: fold change of Cadaverine concentration

[
  {
    "compound": "CC[N+](C)(CC)CCC[n+]1c(-c2ccccc2)c2cc(N)ccc2c2ccc(N)cc21 [Propidium iodide] (20 µM)",
    "reported-property": "fold change of Cadaverine concentration",
    "measured-value": 1
  },
  {
    "compound": "CC(C)(O/N=C(\\C(=O)N[C@@H]1C(=O)N2C(C(=O)[O-])=C(C[n+]3ccccc3)CS[C@H]12)c1csc(N)n1)C(=O)O [Ceftazidime pentahydrate] (20 µM)",
    "reported-property": "fold change of Cadaverine concentration",
    "measured-value": 2.09
  },
  {
    "compound": "C[C@H](CC[C@@H](O[C@@H]1O[C@H](CO[C@@H]2O[C@H](CO)[C@@H](O)[C@H](O)[C@H]2O)[C@@H](O)[C@H](O)[C@H]1O[C@@H]1O[C@H](CO)[C@@H](O)[C@H](O)[C@H]1O)C(C)(C)O)[C@H]1CC[C@@]2(C)[C@@H]3CC=C4[C@@H](CC[C@H](O[C@@H]5O[C@H](CO[C@@H]6O[C@H](CO)[C@@H](O)[C@H](O)[C@H]6O)[C@@H](O)[C@H](O)[C@H]5O)C4(C)C)[C@]3(C)[C@H](O)C[C@]12C [Mogroside V] (50 µM)",
    "reported-property": "fold change of Cadaverine concentration",
    "measured-value": 1.11
  },
  {
    "compound": "Cc1nc2n(c(=O)c1CCN1CCC(c3noc4cc(F)ccc34)CC1)CCCC2 [Risperidone] (20 µM)",
    "reported-property": "fold change of Cadaverine concentration",
    "measured-value": 0.952
  },
  {
    "compound": "Cc1c(C)c2c(c(C)c1O)CCC(C)(COc1ccc(CC3SC(=O)NC3=O)cc1)O2 (centres undefined) [Troglitazone] (20 µM)",
    "reported-property": "fold change of Cadaverine concentration",
    "measured-value": 1.01
  },
  {
    "compound": "O=C(O)CSCC(=O)NC1CCSC1=O (centres undefined) [Erdosteine] (20 µM)",
    "reported-property": "fold change of Cadaverine concentration",
    "measured-value": 0.993
  },
  {
    "compound": "C[C@H]1C[C@H]2[C@@H]3CCC4=CC(=O)C=C[C@]4(C)[C@@]3(F)[C@@H](O)C[C@]2(C)[C@@]1(O)C(=O)CO [Betamethasone] (20 µM)",
    "reported-property": "fold change of Cadaverine concentration",
    "measured-value": 1.04
  },
  {
    "compound": "NS(=O)(=O)c1cc2c(cc1Cl)N=CNS2(=O)=O [Chlorothiazide] (20 µM)",
    "reported-property": "fold change of Cadaverine concentration",
    "measured-value": 0.97
  },
  {
    "compound": "CCC(=O)c1ccc(O)cc1 [Paroxypropione] (20 µM)",
    "reported-property": "fold change of Cadaverine concentration",
    "measured-value": 1.01
  },
  {
    "compound": "C[C@@](Cc1ccc(O)c(O)c1)(NN)C(=O)O [Carbidopa] (20 µM)",
    "reported-property": "fold change of Cadaverine concentration",
    "measured-value": 0.994
  },
  {
    "compound": "NS(=O)(=O)c1cc2c(cc1Cl)NC(Cc1ccccc1)NS2(=O)=O (centres undefined) [Benzylhydrochlorothiazide] (20 µM)",
    "reported-property": "fold change of Cadaverine concentration",
    "measured-value": 0.887
  },
  {
    "compound": "CC(C)(S)C(N)C(=O)O (racemic) [D,L-Penicillamine] (20 µM)",
    "reported-property": "fold change of Cadaverine concentration",
    "measured-value": 1
  },
  {
    "compound": "CC(C(=O)O)c1ccc(-c2ccccc2)c(F)c1 (centres undefined) [Flurbiprofen] (20 µM)",
    "reported-property": "fold change of Cadaverine concentration",
    "measured-value": 1
  },
  {
    "compound": "NC(=O)OCC(COC(N)=O)c1ccccc1 [Felbamate] (20 µM)",
    "reported-property": "fold change of Cadaverine concentration",
    "measured-value": 1.05
  },
  {
    "compound": "CCOC(=O)Nc1ccc2c(c1)N(C(=O)CCN1CCOCC1)c1ccccc1S2 [Moricizine hydrochloride] (20 µM)",
    "reported-property": "fold change of Cadaverine concentration",
    "measured-value": 1.01
  },
  {
    "compound": "COC(=O)C1=C(C)NC(C)=C(C(=O)OCCN2CCN(C(c3ccccc3)c3ccccc3)CC2)C1c1cccc([N+](=O)[O-])c1 (centres undefined) [Manidipine Dihydrochloride] (20 µM)",
    "reported-property": "fold change of Cadaverine concentration",
    "measured-value": 1.01
  },
  {
    "compound": "OC(CCCN1CCCCC1)(c1ccccc1)c1ccccc1 [Diphenidol hydrochloride] (20 µM)",
    "reported-property": "fold change of Cadaverine concentration",
    "measured-value": 0.932
  },
  {
    "compound": "NC1CCN(c2c(F)cc3c(=O)c(C(=O)O)cn(C4CC4)c3c2Cl)C1 (centres undefined) [Clinafloxacin] (20 µM)",
    "reported-property": "fold change of Cadaverine concentration",
    "measured-value": 0.233
  },
  {
    "compound": "CC(C)(C)CC(C)(C)c1ccc(O)c(Cc2ccc(Cl)cc2Cl)c1 [Clofoctol] (20 µM)",
    "reported-property": "fold change of Cadaverine concentration",
    "measured-value": 1.01
  },
  {
    "compound": "Nc1ccc(S(=O)(=O)Nc2ccc(Cl)nn2)cc1 [Sulfachloropyridazine] (20 µM)",
    "reported-property": "fold change of Cadaverine concentration",
    "measured-value": 0.962
  },
  {
    "compound": "Nc1cccc2c1C(=O)N(C1CCC(=O)NC1=O)C2=O (centres undefined) [Pomalidomide] (20 µM)",
    "reported-property": "fold change of Cadaverine concentration",
    "measured-value": 0.954
  },
  {
    "compound": "CCCCc1ncc(/C=C(\\Cc2cccs2)C(=O)O)n1Cc1ccc(C(=O)O)cc1 [Eprosartan mesylate] (20 µM)",
    "reported-property": "fold change of Cadaverine concentration",
    "measured-value": 0.963
  },
  {
    "compound": "CCN(CC)C(=O)c1cccnc1 [Nikethamide] (20 µM)",
    "reported-property": "fold change of Cadaverine concentration",
    "measured-value": 1.08
  },
  {
    "compound": "CSc1nc2cc(Cl)c(Oc3cccc(Cl)c3Cl)cc2[nH]1 [Triclabendazole] (20 µM)",
    "reported-property": "fold change of Cadaverine concentration",
    "measured-value": 1.01
  },
  {
    "compound": "CN(C)CCOC(c1ccccc1)c1ccccc1 [Diphenhydramine hydrochloride] (20 µM)",
    "reported-property": "fold change of Cadaverine concentration",
    "measured-value": 0.98
  },
  {
    "compound": "NCCCC[C@H](N[C@@H](CCc1ccccc1)C(=O)O)C(=O)N1CCC[C@H]1C(=O)O [Lisinopril] (20 µM)",
    "reported-property": "fold change of Cadaverine concentration",
    "measured-value": 1.04
  },
  {
    "compound": "CO[C@@H]1[C@@H](O[C@@H]2O[C@H](C)[C@@H](O[C@H]3C[C@@](C)(O)[C@@H](OC(=O)CC(C)C)[C@H](C)O3)[C@H](N(C)C)[C@H]2O)[C@@H](CC=O)C[C@@H](C)[C@@H](O)/C=C/C=C/C[C@@H](C)OC(=O)C[C@H]1OC(C)=O [Josamycin] (20 µM)",
    "reported-property": "fold change of Cadaverine concentration",
    "measured-value": 1.34
  },
  {
    "compound": "Cc1cnc(C(=O)O)c[n+]1[O-] [Acipimox] (20 µM)",
    "reported-property": "fold change of Cadaverine concentration",
    "measured-value": 1.03
  },
  {
    "compound": "N=C(N)N1CCc2ccccc2C1 [Debrisoquin sulfate] (20 µM)",
    "reported-property": "fold change of Cadaverine concentration",
    "measured-value": 0.999
  }
]
